This collection of values is drawn from PubChem BioAssay.

# inhibition per record follows
Run Description: human hepatoma cell viability loss – ATP luminescence, cytotoxicity control for P. falciparum antimalarial project, primary screen (AID 2303);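 further: 0% = DMSO wells and 100% = digitonin-killed cells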
Run Conditions: HepG2 viability, 24-48 h, at 10 µM, active compounds read high
Recorded Endpoint: inhibition (%)

Molecule | Observed
COc1ccc(NC(=O)C2c3ccccc3C(=O)N(C3CCCC3)C2c2cccs2)cc1 (stereo not given) | 0
Brc1ccc(C=NNc2nc3ccccc3[nH]2)cc1 | -3
O=C(Nc1ccccc1Cc1ccccc1)c1ccccc1[N+](=O)[O-] | -6
O=C(Nc1ccc2c(c1)OCO2)c1cc(-c2cccnc2)cnc1NCc1ccc2c(c1)OCO2 | 2
COc1ccc(Nc2nccc(NCC(O)c3cccc(C(F)(F)F)c3)n2)cc1 (stereo not given) | 22
FC(F)(F)c1cccc(Nc2nc(-c3ccccc3)nc3ncccc23)c1 | 17
COc1ccc2nccc(CCC3(O)CCC(NCc4cc5c(cc4F)SCC(=O)N5)CC3)c2c1 (stereo not given) | 9
Cc1ccc(C)c(NC(=O)NC2CCN(c3ccnc(Nc4ccc(F)cc4)n3)C2)c1 (stereo not given) | -2
COc1cc(SC)ccc1C(=O)N1CC(C)CC(C)C1 (stereo not given) | 5
NC1=NC(Cc2ccccc2)(c2ccncc2)C(=O)N1CCCc1ccccc1 (stereo not given) | 1

====

Run Description: human hepatoma cell viability loss – ATP luminescence, cytotoxicity control for P. falciparum antimalarial project, primary screen (AID 2303);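 further: 0% = DMSO wells and 100% = digitonin-killed cells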
Run Conditions: HepG2 viability, 24-48 h, at 10 µM, active compounds read high
Doc: threshold 30% (exclusive). Items with inhibition beneath it return rule met; others return rule not met.

Compound | Group Label
COc1cc(C2=NN(S(=O)(=O)c3c(C)cc(C)cc3C)CCCC2)ccc1Cl | rule met
Clc1ccccc1CCNCC1CCN(CC2CCCCC2)CC1 | rule not met
COc1ccc(Nc2cc(C)nc(NCc3ccc4c(c3)OCO4)n2)cc1 | rule met
CNC(=O)COc1cc(C)c(C2CCN(CCCCNC(=O)c3ccc(-c4ccc(C(F)(F)F)cc4)cc3)CC2)cc1C | rule not met
Cc1cc(CNCC2CCC(CNCCCc3ccccc3)CC2)ccc1O (centres undefined) | rule met
CCN(CCCN1CCCCC1)c1cc(C)nc(Nc2ccc(C(F)(F)F)cc2)n1 | rule met
CC(C)C[C@@H](/C=N/N1CCNC1=O)NC(=O)[C@H](CC(C)C)NC(=O)c1ccc(OCCN2CCOCC2)cc1 | rule met
O=S(=O)(NC1CCN(c2ccnc3ccccc23)C1)c1ccc(OC(F)(F)F)cc1 (centres undefined) | rule not met
CCN(CC)C(=NCCCCCCN=C(NC(N)=NCc1ccc(Cl)cc1)N(CC)CC)NC(N)=NCc1ccc(Cl)cc1 | rule met

====

Catalogue of molecules with associated growth inhibition
Run Description: antimalarial activity against Dd2 strain (AID 2302);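 further: 0% = DMSO untreated growth and 100% = chloroquine plus artemisinin killed control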
Run Conditions: P. falciparum Dd2 in RBCs, LDH growth readout, 72 h; at 2 µM; active compounds read high
Active and inactive are the calls of the source.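 The calls were made as follows: active = growth inhibition above 50% at the single 2 µM test dose, taken to imply half-maximal potency below 2 µM; inactive = the rest.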

Molecule | growth inhibition
COc1ccc(/C=C/C(=O)Nc2ccc(-c3ccncc3)cc2)cc1CCCN(C)C | 86% (active)
Cc1cc(Nc2ccnc(-c3ccc(Cl)cc3)n2)ccn1 | 23% (inactive)
CCNc1cc(C(=O)N[C@@H](Cc2ccccc2Cl)[C@H](O)CNC(C)CCCC(C)C)cc(N2CCCCS2(=O)=O)c1 (some centres undefined) | 62% (active)
O=C(Nc1cccc(F)c1)N(Cc1ccc(-c2ccc(CN3CCNCC3)cc2)cc1)C1CCN(Cc2ccccc2)CC1 | 53% (active)
O=C(Nc1ccc(-c2cccc(-c3nc4ccc(F)cc4[nH]3)c2)cc1)Nc1ccc(F)c(F)c1F | 98% (active)
CCOc1cc(-c2nnc3[nH]c(=O)n(C)c(=O)c3n2)ccc1OC(C)C | 86% (active)
O=C(Nc1cccc(-c2nc3ccccc3[nH]2)c1)c1cccc(NC(=O)c2ccco2)c1 | 45% (inactive)
FC(F)(F)c1ccc2nc(-c3ccc(-c4cccc(CNCc5cnn(-c6ccccc6)n5)c4)s3)[nH]c2c1 | 91% (active)
COc1cc(CC2c3cc(O)c(Cl)cc3CCN2C)c(OC)cc1C (centres undefined) | 88% (active)

====

Measured On: Calcium-dependent protein kinase 4 (Plasmodium falciparum (isolate 3D7)) (UniProt Q8IBS5)
Sequence (Q8IBS5 whole entry, looked up): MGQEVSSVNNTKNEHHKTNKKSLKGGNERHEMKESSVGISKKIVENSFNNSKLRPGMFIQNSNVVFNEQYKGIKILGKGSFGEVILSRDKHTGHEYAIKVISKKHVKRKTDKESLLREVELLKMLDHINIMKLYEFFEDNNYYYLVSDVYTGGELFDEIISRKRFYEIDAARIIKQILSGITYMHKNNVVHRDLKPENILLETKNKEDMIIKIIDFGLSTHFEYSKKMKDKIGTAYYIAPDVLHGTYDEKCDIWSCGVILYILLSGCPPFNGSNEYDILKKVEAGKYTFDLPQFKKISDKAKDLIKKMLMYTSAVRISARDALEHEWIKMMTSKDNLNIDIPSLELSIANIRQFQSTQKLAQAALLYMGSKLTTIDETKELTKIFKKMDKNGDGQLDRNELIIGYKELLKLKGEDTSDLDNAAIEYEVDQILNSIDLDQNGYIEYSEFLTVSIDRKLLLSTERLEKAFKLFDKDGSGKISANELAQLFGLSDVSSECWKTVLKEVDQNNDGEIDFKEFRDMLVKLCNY
Run Description: PfCDPK4 kinase inhibitors, biochemical, TCAMS library (AID 1159588)
Run Conditions: recombinant PfCDPK4, Kinase-Glo ATP depletion luminescence
Measured potencies and affinities stand elsewhere. Activity calls are given as the source filed them. The limit is not given here; nearly all actives have IC50 up to about 0.91 µM.

Compound | outcome
O=C(Nc1ccccc1)Nc1ccc(-n2ccc(C(F)(F)F)n2)cc1 | inactive
Clc1cccc(CNc2nc(NCCc3cnc[nH]3)nc(NC3CCCCC3)n2)c1 | inactive
CC(=O)Nc1ccc(C(=O)Nc2ccc(-c3cccc(-c4nc5ccc(C(F)(F)F)cc5[nH]4)c3)cc2)cn1 | inactive
COc1ccc2c(=O)c(C3CCC(c4ccc(Cl)cc4)CC3)c(C)[nH]c2c1 (stereo not given) | inactive
Cn1cncc1C(=O)Nc1cccc(-c2ccc(-c3nc4ccccc4[nH]3)s2)c1 | inactive
COc1cccc(C(=O)NCc2cccs2)c1Oc1ccccc1 | inactive
Cc1cc(NN=Cc2ccccc2F)c2cc(F)ccc2n1 | inactive
CCC1(C)N=C(N)N=C(N)N1c1ccccc1 (stereo not given) | inactive
CC(C)CNCc1ccc(OCc2cccc(COc3ccc(CNCC(C)C)cc3I)c2)c(I)c1 | inactive
Cc1cccc2[nH]c(-c3ccc(-c4ccc(CN5CCN(CCN6CCOCC6)CC5)cc4)s3)nc12 | inactive

====

Run Description: inhibition of 3D7 malaria parasite growth – strain 3D7 (AID 2306);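 further: 0% = DMSO wells and 100% = chloroquine plus artemisinin control wells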
Run Conditions: P. falciparum 3D7 erythrocytic growth, LDH absorbance, 72 h; at 2 µM; active compounds read high
Calls of active or inactive are those of the source. The rule behind the calls is not given here.

Compound | growth inhibition
Cc1ncccc1C(=O)Nc1cccc(-c2cccc(-c3nc4c(C)cccc4[nH]3)c2)c1 | 93% (active)
CC1(C)N=C(N)N=C(N)N1c1ccc([N+](=O)[O-])cc1 | 93% (active)
O=C(Nc1ccc(Cl)c(Cl)c1)Nc1ccc2nccc(N3CCNCC3)c2c1 | 99% (active)
Cc1cc(N2CCCC2)nc(Nc2ccc(NC(=O)Cc3ccccc3)cc2)n1 | 102% (active)
CN(CCN(C)C(=O)NCc1ccccc1)C(=O)NCc1ccccc1 | 101% (active)
Cc1cccc2[nH]c(-c3ccc(-c4ccc(CN5CCN(CCN6CCOCC6)CC5)cc4)s3)nc12 | 100% (active)
O=C(O)c1ccc(OCOCOc2ccc(C(=O)O)c(O)c2)cc1O | 99% (active)
CCCCCN1CCCN(Cc2cccc(NC(=O)c3ccc(-c4ccccc4)cc3)c2)CC1 | 95% (active)
O=C(Nc1cccc(CN2CCN(Cc3ccc(O)cc3)CC2)c1)c1ccc(-c2ccccc2)cc1 | 101% (active)
COc1ccc(CCNCCCCNCCc2ccc(OC)c3ccccc23)c2ccccc12 | 100% (active)
CN1CCCC(COc2cc3c(cc2Br)CCN3C(=O)Nc2ccc(-c3ccncc3)c(Cl)c2)C1 (stereo not given) | 100% (active)
OCC1CCN(Cc2ccc(-c3ccc(-c4nc5ccccc5[nH]4)cc3)cc2)CC1 | 100% (active)
CC(C)CCNC(=O)c1cnc2c(O)cccc2c1Nc1cccc(NC(=O)c2ccc(F)cc2)c1 | 93% (active)
O=C(Nc1ccc(Oc2ccccc2)cc1)N(Cc1ccc(-c2cccc(CN3CCNCC3)c2)cc1)C1CCN(Cc2ccccc2)CC1 | 93% (active)
O=S(=O)(NCCN1CCCC1)c1ccc(-c2ccc(CNCc3ccccc3)cc2)s1 | 94% (active)
O=C(Nc1ccc(Cn2nc(Cl)c(N3CCNCC3)cc2=O)cc1)Nc1ccc(-c2ccccc2)cc1 | 97% (active)
CC1CCCN(c2ccc(NC(=O)c3cccs3)cc2[N+](=O)[O-])C1 (stereo not given) | 96% (active)
N#Cc1ccc(C=NNc2nc3ccccc3[nH]2)cc1 | 101% (active)
CCN(CC)C(=O)C1CCCN(c2cc(C)nc(Nc3ccc(Cl)cc3)n2)C1 (stereo not given) | 94% (active)
NS(=O)(=O)c1cccc(-c2ccc3nccc(-c4cccc(S(N)(=O)=O)c4)c3c2)c1 | 98% (active)

====

Measured On: Protein kinase 7 (PK7), Plasmodium falciparum 3D7 (PF3D7_0213400) (UniProt Q7YTF7)
Run Description: inhibition of Plasmodium PK7 catalytic activity – biochemical, TCAMS antimalarial set, Kinase-Glo luminescence (AID 1159587)
Run Conditions: recombinant PfPK7, Kinase-Glo ATP depletion luminescence
Calls of active or inactive are those of the source. No rule for the calls is given here.

Compound | outcome
FC(F)(F)c1ccc2nc(-c3cccc(-c4ccc(CNCCN5CCNCC5)cc4)c3)[nH]c2c1 | inactive
Cc1ccc(CN2CCN(c3cc4c(cc3Cl)CCN4C(=O)Cc3ccc(NC(=O)c4ccc(C(F)(F)F)cc4)cc3)CC2)cc1 | inactive
O=C(Nc1ccc(-c2cccc(-c3nc4ccc(F)cc4[nH]3)c2)cc1)Nc1ccc(F)c(F)c1F | inactive
CCc1cn2c3c(cc(C(=O)N[C@@H](Cc4ccccc4)[C@H](O)CNC(C)(C)c4cccc(OC)c4)cc13)N(C)S(=O)(=O)C2 | inactive
COc1cc2ccccc2cc1CCNCCCCNCCc1cc2ccccc2cc1OC | inactive
CCCCCCN1CCCN(Cc2ccc(C(=O)Nc3ccc(C(C)C)cc3)cc2)CC1 | inactive
CCN1CCC(N(Cc2ccc(-c3ccc(C(F)(F)F)cc3)cc2)C(=O)Cn2c(CCc3cccc(F)c3F)cc(=O)c3ccc(OCc4ccccc4)cc32)CC1 | inactive
CC(C)(C)c1ccc(CN2CCC(CNC(=O)c3cc(-c4ccccc4F)cs3)C2)cc1 (centres undefined) | inactive
COc1ccc(-c2ccc(NC(=O)c3ccc(Cl)cc3)cc2)cc1CN1CCCN(C)CC1 | inactive
